Molecular target: Plasmodium falciparum protein kinase 6 (PK6, PF3D7_1337100)
Assay: PfPK6 kinase inhibitors, biochemical, TCAMS library (AID 1159586)
Conditions: recombinant PfPK6, Kinase-Glo ATP depletion luminescence
Entries with a potency or affinity are not part of this list. Active and inactive are the calls of the source. How the calls were made is not given here.

Molecule | outcome
COc1cc2[nH]c(-c3ccc(O)cc3)c(C)c(=O)c2c(OC)c1OC | inactive
Fc1ccc(-c2cc3ncnc(N4CCN(CCN5CCCC5)CC4)c3s2)cc1 | inactive
COc1cccc(OC)c1CN1CCC(N(C)CCCCCCCCCN2CCC(OC(=O)Nc3ccccc3-c3ccccc3)CC2)CC1 | inactive
Cc1cccc2[nH]c(-c3cccc(-c4ccc(NC(=O)c5cccnc5)cc4)c3)nc12 | inactive
Cc1nc(-c2cccc(C(=O)N(Cc3cncn3Cc3cccc(C(F)(F)F)c3)CC3CC3)c2)cs1 | inactive
Cc1[nH]c(C)c(-c2ccc(C(=O)c3ccc(Cl)cc3)cc2)c(=O)c1Br | inactive
COc1ccccc1N1CCN(C(C(=O)NCc2ccc3c(c2)OCO3)c2ccc3c(c2)OCCCO3)CC1 (centres undefined) | inactive
COc1cc(OC)cc(-c2nn(-c3ccc([N+](=O)[O-])cc3C#N)c(=S)n2CC2CCCO2)c1 (centres undefined) | inactive
O=C(Nc1cc(F)cc(F)c1)N1CCOC(CCN2CCC(c3ccccc3)CC2)(c2ccc(Cl)c(Cl)c2)C1 (centres undefined) | inactive
CN=C(N)c1ccc(NC(=O)c2ccc(C(=O)Nc3ccc(C(N)=NC)cc3)cc2)cc1 | inactive
Clc1ncnc2scc(-c3ccc(Br)cc3)c12 | inactive
O=C(/C=C/c1ccc(C(F)(F)F)cc1)NCCCCCN1CCN(C(=O)Nc2ccc(F)c(Cl)c2)CC1 | inactive
CC1(C)N=C(N)N=C(N)N1OCc1cc(Cl)c(Cl)cc1CON1C(N)=NC(N)=NC1(C)C | inactive
CC(C)c1ccc(NC(=O)NC2CCN(CCCCCN(C)C(=O)/C=C/c3ccc(Cl)c(Cl)c3)C2)cc1 (centres undefined) | inactive
O=C(Nc1cccnc1)c1ccc(-c2cc3ccncc3cc2OC2CCNCC2)s1 | inactive
CNCCCNc1ccnc2cc(Cl)ccc12 | inactive
COc1ccc(OC)c(C=NNc2nc3ccccc3[nH]2)c1 | inactive
CCN(CC)CCN(CCCc1ccc(-c2ccc(C(F)(F)F)cc2)cc1)C(=O)Cn1c(CCc2cccc(F)c2F)nc(=O)c2c1CCC2 | inactive
CC(=O)c1ccc2cc(C(=O)NC3CCC(CCN4CCc5ccc(-c6noc(C)n6)cc5CC4)CC3)[nH]c2c1 (centres undefined) | inactive

###

Molecular target: L-lactate dehydrogenase (Plasmodium falciparum (isolate CDC / Honduras))
Experiment: PfLDH activity inhibition – cell lysate, 3D7 strain, counter-screen for P. falciparum growth inhibition project (AID 2304);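 further: 0% = vehicle and 100% = reference inhibitor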
Conditions: P. falciparum 3D7 crude extract, LDH APAD/NBT absorbance; at 2 µM; active compounds read high
# reported inhibition; entries follow

Molecule | Study system | inhibition (%)
O=C(C1CC1)N1c2ccccc2CCc2ccccc21 | L-lactate dehydrogenase (Plasmodium falciparum (isolate CDC / Honduras)) | 1
COc1ccc2nccc([C@@H](O)CN3CCC(NCc4cc5cccc(O)c5[nH]4)CC3)c2c1 | L-lactate dehydrogenase (Plasmodium falciparum (isolate CDC / Honduras)) | -6
COc1cccc(CC(=O)N2CCC(n3c(C)nc4ccc(F)cc43)CC2)c1 | L-lactate dehydrogenase (Plasmodium falciparum (isolate CDC / Honduras)) | -3
C=CCn1c(Sc2ccc(C#N)c([N+](=O)[O-])c2)nnc1-c1ccc(Cl)cc1 | L-lactate dehydrogenase (Plasmodium falciparum (isolate CDC / Honduras)) | 3
Cc1cccc(C(=O)Nc2ccnc(N3CCC(N(C)Cc4cccc(O)c4)CC3)c2)c1 | L-lactate dehydrogenase (Plasmodium falciparum (isolate CDC / Honduras)) | -1
O=C(Nc1cc(Oc2ccc(O)cc2)cc([N+](=O)[O-])c1)c1cc(-c2ccc(F)cc2)no1 | L-lactate dehydrogenase (Plasmodium falciparum (isolate CDC / Honduras)) | 0
CC(C)N(Cc1ccc(-c2ccc(C(F)(F)F)cc2)cc1)C(=O)Cn1c(SCc2cccc(F)c2F)cc(=O)c2cc(CN3CCCCC3)ccc21 | L-lactate dehydrogenase (Plasmodium falciparum (isolate CDC / Honduras)) | -8
CC(=O)Nc1nc(N)c2c(ccc3c2ccn3CC(C)C)n1 | L-lactate dehydrogenase (Plasmodium falciparum (isolate CDC / Honduras)) | -3
CC(Oc1c(C2CCN(CCCCNC(=O)c3ccc(-c4ccc(Cl)cc4)cc3)CC2)ccc2c1CCCC2)C(N)=O (centres undefined) | L-lactate dehydrogenase (Plasmodium falciparum (isolate CDC / Honduras)) | 3
CCC(=O)N1CCc2cc(Br)cc(S(=O)(=O)N3CC(C)CC(C)C3)c21 (centres undefined) | L-lactate dehydrogenase (Plasmodium falciparum (isolate CDC / Honduras)) | -3
CCOc1ccccc1C=CC(=O)Nc1ccc2nc(N3CCN(C)CC3)cc(C)c2c1 | L-lactate dehydrogenase (Plasmodium falciparum (isolate CDC / Honduras)) | -1
FC(F)(F)c1ccc2c(NCCc3ccccc3)ccnc2c1 | L-lactate dehydrogenase (Plasmodium falciparum (isolate CDC / Honduras)) | 0
CC(C)(C)NCc1cc(Nc2ccnc3cc(Cl)ccc23)ccc1F | L-lactate dehydrogenase (Plasmodium falciparum (isolate CDC / Honduras)) | 6
CCOc1cc(C(=O)NCc2cccc(C(F)(F)F)c2)ccc1-c1nc2ccc(Cl)cc2[nH]1 | L-lactate dehydrogenase (Plasmodium falciparum (isolate CDC / Honduras)) | -6
Fc1ccc2nc(-c3ccc(-c4ccc(CNCCc5ccncc5)cc4)s3)[nH]c2c1 | L-lactate dehydrogenase (Plasmodium falciparum (isolate CDC / Honduras)) | -3
Cc1cc(OCCN2CCCCC2)ccc1NC(=O)c1cccc2c(=O)n(Cc3ccc(Cl)cc3)cnc12 | L-lactate dehydrogenase (Plasmodium falciparum (isolate CDC / Honduras)) | 0
COc1cc2nc(N3CCC(CNC(=O)/C=C/c4cccc(C)c4)CC3)nc(N)c2cc1OC | L-lactate dehydrogenase (Plasmodium falciparum (isolate CDC / Honduras)) | -8
COc1ccc(-c2ccc(NC(=O)c3ccc(Cl)cc3)cc2)cc1CN1CCCN(C)CC1 | L-lactate dehydrogenase (Plasmodium falciparum (isolate CDC / Honduras)) | 2
Cc1c(C)n(Cc2ccccc2)c2ncnc(OC3CCN(CC(=O)NCC4CC4)CC3)c12 | L-lactate dehydrogenase (Plasmodium falciparum (isolate CDC / Honduras)) | -3
Cc1ccc2c(O)c([N+](=O)[O-])c(=O)[nH]c2c1 | L-lactate dehydrogenase (Plasmodium falciparum (isolate CDC / Honduras)) | -4
O=C1C(c2ccccc2)=C(Nc2cccc([N+](=O)[O-])c2)c2ccccc21 | L-lactate dehydrogenase (Plasmodium falciparum (isolate CDC / Honduras)) | 1
NC(=NC1CC1)c1ccc2nc(CCCCCc3nc4ccc(C(N)=NC5CC5)cc4[nH]3)[nH]c2c1 | L-lactate dehydrogenase (Plasmodium falciparum (isolate CDC / Honduras)) | 2
COc1cc(C(=O)Nc2cccc(-c3nc4ccccc4[nH]3)c2)ccc1OC(C)=O | L-lactate dehydrogenase (Plasmodium falciparum (isolate CDC / Honduras)) | -4
CCN1CCN(Cc2ccc(NC(=O)c3cc4ccc5cccnc5c4[nH]3)cc2)CC1 | L-lactate dehydrogenase (Plasmodium falciparum (isolate CDC / Honduras)) | -3
CCOc1ccc2c(NN=Cc3cccc(F)c3)cc(C)nc2c1 | L-lactate dehydrogenase (Plasmodium falciparum (isolate CDC / Honduras)) | 7
CC(C)COc1ccc(Cl)cc1Cc1nc(-c2nc3ccc(CN4CCN(C)CC4)cc3[nH]2)co1 | L-lactate dehydrogenase (Plasmodium falciparum (isolate CDC / Honduras)) | 7
COc1ccc(CNCc2ccc(F)cc2)cc1-c1ccc(S(=O)(=O)NCCN2CCCC2)c(C)c1 | L-lactate dehydrogenase (Plasmodium falciparum (isolate CDC / Honduras)) | -2
CCCCc1cc(NCc2ccncc2)nc(Nc2ccc(OC)cc2)n1 | L-lactate dehydrogenase (Plasmodium falciparum (isolate CDC / Honduras)) | 0
CN1CCCN(Cc2ccc(-c3ccc(NC(=O)c4ccc(C#N)cc4)cc3)cc2)CC1 | L-lactate dehydrogenase (Plasmodium falciparum (isolate CDC / Honduras)) | 4
Cc1nc(-c2ccc3c(c2)CCN(CCC2CCC(NC(=O)c4cc5cccc(Cl)c5[nH]4)CC2)CC3)no1 (centres undefined) | L-lactate dehydrogenase (Plasmodium falciparum (isolate CDC / Honduras)) | 2
CC(C)C1C(O)=C(c2ccc3ccccc3c2)C(=O)N1Cc1ccsc1 (centres undefined) | L-lactate dehydrogenase (Plasmodium falciparum (isolate CDC / Honduras)) | 3
O=C(Nc1ccc2c(c1)CCN(C1CCC1)CC2)c1cn(-c2ccccc2)nc1-c1ccccc1 | L-lactate dehydrogenase (Plasmodium falciparum (isolate CDC / Honduras)) | 3
COc1ccc(NC(=O)[C@H](Cc2ccccc2)Nc2cc(C)nc(NCCc3ccccn3)n2)cc1 | L-lactate dehydrogenase (Plasmodium falciparum (isolate CDC / Honduras)) | -3
CCN(CC)CCN(Cc1ccc(-c2ccc(C(F)(F)F)cc2)cc1)C(=O)Cn1c(CCc2ccccc2F)nc(=O)c2ccccc21 | L-lactate dehydrogenase (Plasmodium falciparum (isolate CDC / Honduras)) | -1
Cc1ccc(NC(=O)c2ccc3ncccc3c2)cc1OC1CCN(Cc2ccco2)C1 (centres undefined) | L-lactate dehydrogenase (Plasmodium falciparum (isolate CDC / Honduras)) | 2
CC(C)(C)c1ccc2nccc(Nc3cccc(O)c3)c2c1 | L-lactate dehydrogenase (Plasmodium falciparum (isolate CDC / Honduras)) | 0
O=C(Nc1cccc(CN2CCN(Cc3cccc(O)c3)CC2)c1)c1ccc(Cl)c(Cl)c1 | L-lactate dehydrogenase (Plasmodium falciparum (isolate CDC / Honduras)) | -1
O=C(NCc1ccc(Cl)c(Cl)c1)c1ccc(-c2nc3ccc(F)cc3[nH]2)cc1 | L-lactate dehydrogenase (Plasmodium falciparum (isolate CDC / Honduras)) | 1
Cc1ccccc1C1CCN(C2CCC(NC(=O)c3cc4cc(Cl)ccc4o3)CC2)CC1 (centres undefined) | L-lactate dehydrogenase (Plasmodium falciparum (isolate CDC / Honduras)) | -2
